# experimentDescription: Protein binding in plasma
# Assay type: ADME, cell-free
# runParameters: read-out: PPB
Exercise: for every item that follows, state its recorded fraction unbound.

Solved entries:
O=S(=O)(c1ccc2ccccc2c1)N1CCCN(Cc2c(F)cccc2Cl)CC1 :: ≤ 0.1
O=S(=O)(c1ccc2ccccc2c1)N1CCN(c2ncc(C(F)(F)F)cc2Cl)CC1 :: ≤ 0.1

API: the following record is the query input.
Could you tell me which fraction unbound is on file for N#C/C(=C\c1ccc2c(c1)CCO2)S(=O)(=O)c1ccc(Cl)cc1Cl ?
≤ 0.05

* * *

# systemTested: UniProtKB P28845
# Sequence (P28845 whole entry): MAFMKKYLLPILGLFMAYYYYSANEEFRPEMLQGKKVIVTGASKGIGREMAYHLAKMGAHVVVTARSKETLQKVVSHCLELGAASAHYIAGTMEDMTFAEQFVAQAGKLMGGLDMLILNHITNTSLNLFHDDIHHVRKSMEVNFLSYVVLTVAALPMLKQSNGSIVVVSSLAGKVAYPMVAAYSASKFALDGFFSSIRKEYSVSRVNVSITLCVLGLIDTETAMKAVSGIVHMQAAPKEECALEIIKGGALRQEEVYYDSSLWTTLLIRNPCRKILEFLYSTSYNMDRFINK
# experimentDescription: Inhibition of human 11beta HSD1 expressed in HEK293 cells assessed as assessed as inhibition of [1,2-(n)3H]cortisone to [3H]-cortisol after 60 mins by scintillation proximity assay
Exercise: for every item that follows, state its recorded pIC50.
Answers are plain numbers, as −log10 of the molar value.

Solved entries:
CN(Cc1ccccc1)S(=O)(=O)c1ccc(Oc2cccc(Cl)c2C#N)cc1 :: 7.38
O=S(=O)(Nc1cccc(CCc2ccccn2)c1)c1cc(Cl)ccc1Cl :: 6.99
CCN(CC)C(=O)Cc1csc(NS(=O)(=O)c2cccc(Cl)c2C)n1 :: 7.55

API: the following record is the query input.
Could you tell me which pIC50 is on file for O=C(CSc1nnc(-c2ccccc2)c(-c2ccccc2)n1)N1CCc2ccccc21 ?
7.24
